Listed below: Cyno T-cell Binding 2 uM (MFI) values for each entry.
TEST_SYSTEM: T1, cynomolgus monkey CD8 alpha on primary cynomolgus CD8+ T cells (cynomolgus monkey, UniProt P01732 23-235 (human entry))
T1 construct: also called Cyno CD8alpha; cyno CD8A
T1 sequence (P01732 other isoform, or with tags, fused parts or gaps limits assumed): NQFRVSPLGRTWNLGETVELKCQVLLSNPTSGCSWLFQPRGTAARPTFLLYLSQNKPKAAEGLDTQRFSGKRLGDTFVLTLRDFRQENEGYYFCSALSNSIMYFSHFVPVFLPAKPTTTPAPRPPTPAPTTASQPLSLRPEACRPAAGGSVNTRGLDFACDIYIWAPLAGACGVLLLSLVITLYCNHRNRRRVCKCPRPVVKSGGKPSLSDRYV
ASSAY_REMARKS: flow cytometry, cyno CD8+ T cells
Reply with just the number (in MFI).

- BINDER: "P283FR9P1366_F9 (designed binder, FN3 domain) LPAPKNLVVSRVTEDSARLSWTAPDAAFDSFHIFYPELPIAGEAIVLTVPGSERSYDLTGLKPGTEYWVNISGVKGGYESWPLSAIFTT"
  ENDPOINT_LABEL: "Cyno T-cell Binding 2 uM (MFI)"
  READOUT_NUMBER: 84300
- BINDER: "P283HR7P1368_D4 (designed binder, FN3 domain) LPAPKNLVVSRVTEDSARLSWTAPDAAFDSFAIWCVEPIPEGEAIPLFVPGSERSYDLTGLKPGTEYRVGIRGVKGGTFSSPLAAPFTT"
  ENDPOINT_LABEL: "Cyno T-cell Binding 2 uM (MFI)"
  READOUT_NUMBER: 53000
- BINDER: "P283DR9P1364_B1 (designed binder, FN3 domain) LPAPKNLVVSRVTEDSARLSWTAPDAAFDSFYITYPEIPLGGEAIVLTVPGSERSYDLTGLKPGTEYFVVIYGVKGGLLSSPLSAIFTT"
  ENDPOINT_LABEL: "Cyno T-cell Binding 2 uM (MFI)"
  READOUT_NUMBER: 8620
- BINDER: "P283HR7P1368_C3 (designed binder, FN3 domain) LPAPKNLVVSRVTEDSARLSWTAPDAAFDSFGIGYAEPAVTGEAISLSVPGSKRSYDLTGLKPGTEYWVVIIGVKGGINSYPLGASFTT"
  ENDPOINT_LABEL: "Cyno T-cell Binding 2 uM (MFI)"
  READOUT_NUMBER: 13300

// query Cyno T-cell Binding 2 uM (MFI) value for entry P283DR9P1364_F6 (designed binder, FN3 domain) LPAPKNLVVSRVTEDSARLSWTAPDAAFDSFTIAYPEREQDKWGEAIVLTVPGSERSYDLTGLKPGTEYWVIIQGVKGGRPSTPLSAILTT 33800
